test system: 1405R3; assay: High-throughput drug screen, CellTiter-Glo viability, 72 h; type: cell-based, human; details: Homo sapiens; 1405R3 DSRT analysis; fitted dose-response curve; Min.Conc.tested 1, Max.Conc.tested 10000; CellTiter-Glo, 72 h; read-out: EC50
Structures can show the parent of a compound that is named as a salt.
Would you mind telling me the reported EC50 of each entry?

Here are 3 compounds together with their reported answers.
## Input What value of EC50 has been recorded for this entry: `O=C(CCCCCCNC(=O)c1cnc(N(c2ccccc2)c2ccccc2Cl)nc1)NO`
## Output 2500 nM

## Input Reported EC50 for CCOC(=O)CCNc1cc(N2CCc3ccccc3CC2)nc(-c2ccccn2)n1 [GSK J4 HCl] : what is it?
## Output 1800 nM

## Input Give the measured EC50 of `CCN1CCN(c2ccc(Nc3cc(N(C)C(=O)Nc4c(Cl)c(OC)cc(OC)c4Cl)ncn3)cc2)CC1` .
## Output 2940 nM

Could you tell me EC50 for each of these compounds? They are listed below.
1. COc1ccc(-c2nc(N3CCOCC3)c3sc(CN(C)c4ncc(C(=O)NO)cn4)cc3n2)cn1
2. O=C(/C=C/c1cccc(S(=O)(=O)Nc2ccccc2)c1)NO [belinostat, reference compound]
3. CCN(CC)Cc1ccc2cc(COC(=O)Nc3ccc(C(=O)NO)cc3)ccc2c1
4. Nc1ccccc1NC(=O)c1ccc(CNC(=O)OCc2cccnc2)cc1
5. O=C(/C=C/c1ccc(CN(CCO)CCc2c[nH]c3ccccc23)cc1)NO

## Output
1. 127 nM
2. 684 nM
3. 1550 nM
4. 1200 nM
5. 453 nM

* * *

tested on: 1405R3; assay: High-throughput drug screen, CellTiter-Glo viability, 72 h; format: cell-based, human; conditions: 1405R3 DSRT analysis; fitted dose-response curve; Min.Conc.tested 1, Max.Conc.tested 10000; CellTiter-Glo, 72 h; read-out: EC50
Exercise: state measured EC50 for each of the compounds provided.
Please answer in the form of a number followed by its unit of measurement.

# count of solved cases: 2
## Input Query: EC50; subject: CC(C)(C)OC(=O)Nc1ccc(-c2cc(C(=O)NCCCCCCC(=O)NO)no2)cc1 [CAY10603]
## Output 2720 nM

## Input Could you share which EC50 value was measured for Clc1ccc(N/N=C(\c2ccccc2)c2ccccn2)nc1 [JIB-04] ?
## Output 766 nM

Provide EC50 for all items below, preserving their order.
1. Cc1sc2c(c1C)C(c1ccc(Cl)cc1)=N[C@@H](CC(N)=O)c1nnc(C)n1-2 [CPI-203]
2. COc1cc2c(NC3CCN(C)CC3)cc(-c3ccc(C)o3)nc2cc1OCCCN1CCCC1 [CM272]

## Output
1: 210 nM; 2: 1980 nM

* * *

tested on: 783C-6; experiment: High-throughput drug screen, CellTiter-Glo viability, 72 h; format: cell-based, human; conditions: 783C-6 cells, slope of fitted dose-response curve
Kindly supply the reported SLOPE values for the records listed here.

Please review the entries below; each comes with its answer.
## Input Request - read-out SLOPE | tested on 783C-6 | molecule NC(=O)C1CCCc2c1[nH]c1ccc(Cl)cc21 (stereo not drawn)
## Output -0.1

## Input Given the entry CN1CCC(CNc2ccc3ncc(-c4cccc(OC(F)(F)F)c4)n3n2)CC1 [SGI-1776 free base] , what SLOPE was observed with 783C-6?
## Output -2.5

## Input SLOPE of COc1ccc(N(C)c2nc(C)nc3ccccc23)cc1OCCCC(=O)NO [SKLB-23bb] on 783C-6?
## Output -2.5

Please go through the list and note SLOPE for each molecule.
1. O=C(NCC1(c2nc(-c3ccccc3)cs2)CCOCC1)c1cccc(-c2noc(C(F)(F)F)n2)c1
2. CCCCCCCCCCCCCCCCNNC(=O)c1cccs1

## Output
-0.3
-1
